assay: soluble fraction after stress (log2 fold change); higher = more stays soluble; pooled small domains, quantitative proteomics; details: stress: 50 degC
Measured soluble fraction (log2), listed per entry for reference.
property: soluble fraction (log2)

1) HMRAPEIEAARSDLDVGQTVQIVRHLHGNQYEVFYRGAQWQAEAVGSSGANDAQTAVITGKNGNILLIQI | -0.0658
2) HMLTSAQLAEIRQAVRAGQASVVEDLLKNGASPNFRMENGDTGFTYAVRADTPQVAEALLKSGKL | -0.0678
3) HMFPELNAEETQVVQLLQKQTEGMQVNSLVVESNIPITRMSGILFELELKGIIRNYAGGVYKL | -2.16
4) HMQLTVAVLIKNISKGQVISQGFLGFEARPERQIRGAYTNISEVLGRKAKSNIAVGTILKARHLDT | -2.94
5) HMGDYERVPEYKGKLTSDLTMEDSQKFAFRFIWQNSDEDEGKIIDQDPPAGKSVAKGSEIVLYVSNG | 0.35
6) HMGSVHDAATDRIREMILGGQFEPGERLRQDDLATSLGVSTMPVREALRQLQAEGLVVFYPRKGAVVAR | 0.142
7) HMPATPDATVQAVQQRLNELGYDVGSADGLMGRGTRSAIIAFQQDRGLAATGVADQALLLQLQP | 0.208
8) HMAPLATIHVSSLSQKPFYLYGTFEDRRGNHLFFLEQIMGENKSIPVAMPSSAINPKIHASLTPPKG | -0.32
